target: T1, Recombinant murine glypican-3 (aa 25-557), R&D Systems (murine, UniProt Q8CFZ4 25-557); experiment: SPR, Biacore T100, GPC3-His immobilised, 1:1 fit
T1 construct: also called muGPC3; Mu GPC3-His
T1 sequence (Q8CFZ4 25-557 limits assumed, form in doubt): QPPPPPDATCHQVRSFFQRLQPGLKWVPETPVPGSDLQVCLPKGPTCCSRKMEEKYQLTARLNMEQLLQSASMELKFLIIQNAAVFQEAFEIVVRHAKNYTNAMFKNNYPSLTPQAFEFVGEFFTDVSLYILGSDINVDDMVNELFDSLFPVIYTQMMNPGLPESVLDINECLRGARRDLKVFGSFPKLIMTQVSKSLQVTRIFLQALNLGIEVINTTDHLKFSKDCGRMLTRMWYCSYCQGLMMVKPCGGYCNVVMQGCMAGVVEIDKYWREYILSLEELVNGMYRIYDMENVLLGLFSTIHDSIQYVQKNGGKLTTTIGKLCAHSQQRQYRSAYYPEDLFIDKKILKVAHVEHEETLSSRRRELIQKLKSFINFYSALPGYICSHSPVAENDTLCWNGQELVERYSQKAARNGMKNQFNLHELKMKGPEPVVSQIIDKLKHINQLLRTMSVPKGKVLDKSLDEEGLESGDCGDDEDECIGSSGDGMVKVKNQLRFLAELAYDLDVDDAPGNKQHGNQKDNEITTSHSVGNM
recorded_metric: kon (M⁻¹ s⁻¹)
Quick note: give the figure in M⁻¹ s⁻¹, leave out the unit.

Example cases with answers are listed next.
ADX_6077_F02 DG→AG mutant, alkylated (designed binder, C-terminal cysteine alkylated, also called P1-055669) GVSDVPRDLEVVAATPTSLLISWSDDYHAHRYYRITYGETGGNSPVQEFTVPGEHVTATISGLKPGVDYTITVYAVTYAGEKAATDWSISINYRTPC	140000
ADX_6077_F02 DG→EG mutant, alkylated (designed binder, C-terminal cysteine alkylated, also called P1-055673) GVSDVPRDLEVVAATPTSLLISWSDDYHAHRYYRITYGETGGNSPVQEFTVPGEHVTATISGLKPGVDYTITVYAVTYEGEKAATDWSISINYRTPC	110000
ADX_6077_F02 DG→DV mutant, alkylated (designed binder, C-terminal cysteine alkylated, also called P1-055672) GVSDVPRDLEVVAATPTSLLISWSDDYHAHRYYRITYGETGGNSPVQEFTVPGEHVTATISGLKPGVDYTITVYAVTYDVEKAATDWSISINYRTPC	85000

Consider the additional binder presented here.
What does the record list as kon for ADX_6077_F02 DG→SG mutant, alkylated (designed binder, C-terminal cysteine alkylated, also called P1-055668) VSDVPRDLEVVAATPTSLLISWSDDYHAHRYYRITYGETGGNSPVQEFTVPGEHVTATISGLKPGVDYTITVYAVTYSGEKAATDWSISINYRTPC ?
130000
